test system: NCI-H522; assay: NCI tumour cell line growth inhibition, 48 h
Activity calls are given as the source filed them. Cut-off read from the data, not from the text of the source: active = GI50 up to about 1.1 µM and inactive = higher.
measurementName: GI50

Example results:
c1ccc(-c2cc(-c3cccs3)c(-c3cccs3)s2)cc1	26.5 µM (inactive)
O=C1C2c3[nH]c4ccccc4c3C3CCSCC3C2C(=O)N1c1ccccc1 (stereo unspecified)	> 100 µM (inactive)
O=C(Nc1ccc(Cl)cc1)NS(=O)(=O)c1coc2cc(F)ccc2c1=O	67.9 µM (inactive)

Input: State its GI50 for this molecule: "CCCCOC(=O)Nc1ccc(S(=O)(=O)Nc2c(Cl)cccc2Cl)cc1"
Output: 42.1 µM (inactive)

Input: Provide GI50 value for the following molecule: "Clc1cc(Cl)cc(/C=N/C23CC4CC(CC(C4)C2)C3)c1"
Output: > 10 µM (inactive)

Input: Fill in GI50 for record O=C1C2C3SC(c4cc5ccccc5cc43)C2C(=O)N1c1ccccc1 (stereo unspecified)
Output: 75.7 µM (inactive)

====

system: Hs-578T; assay: NCI tumour cell line growth inhibition, 48 h
Calls of active or inactive are those of the source. Cut-off read from the data, not from the text of the source: active = GI50 up to about 1.1 µM and inactive = higher.
The entries below are paired with their reported GI50.

Solved cases (4 shown):
O=C1CCCC2=C1CC1=C(CCCC1=O)N2c1cccc([N+](=O)[O-])c1	> 100 µM (inactive)
Nc1nc(N)c2cc(Sc3cccc(C(F)(F)F)c3)ccc2n1	2.66 µM (inactive)
C/C(=N\Nc1cc(CN2CCCC2)c(-c2ccc(Cl)cc2)nn1)C(=O)O	> 100 µM (inactive)
O=c1c2cnccc2cc2c3ccccc3ccn12	71.8 µM (inactive)

Input: Read the entry "COc1cc(/C=C/c2cc(/C=C/c3ccc(O)c(OC)c3)oc(=O)c2)ccc1O" and write its reported GI50.
Output: 4.54 µM (inactive)

Input: Answer with the recorded GI50 of COP(=O)(OC)C(O)/C=C(\Cl)c1ccc(Cl)cc1 (stereo unspecified) only.
Output: > 100 µM (inactive)

====

# maps each entry to its GI50
system: SNB-78; experiment: NCI tumour cell line growth inhibition, 48 h
The source made the active and inactive calls. Cut-off read from the data, not from the text of the source: active = GI50 up to about 1.1 µM and inactive = higher.

Previously resolved entries follow.
O=C1CCCCCCCCCCOC(=O)CCCCCCCCCCO1	> 100 µM (inactive)
CCCCCCCCCCCCCCCCOP(=O)([O-])OCC[N+](C)(C)C	47.6 µM (inactive)
COc1cc(C(N)=O)c(OC)c(OC)c1OC	> 100 µM (inactive)
COc1cccc(C2=NC(C(C)C)CO2)c1OC (stereo unspecified)	> 100 µM (inactive)
CCOC(=O)C(NO)C(Sc1ccccc1)c1ccc(OC)cc1 (stereo unspecified)	> 100 µM (inactive)

Input: Recall the reported GI50 of "O=[N+]([O-])c1cc(I)cc(/C=N/NS(=O)(=O)c2ccc(F)cc2)c1O" when tested on SNB-78.
Output: 23.3 µM (inactive)

====

system: UACC-62; test: NCI tumour cell line growth inhibition, 48 h
Calls of active or inactive are those of the source. Cut-off read from the data, not from the text of the source: active = GI50 up to about 1.1 µM and inactive = higher.
measurementName: GI50

The cases that follow already have their GI50 on record.
CC(C)=CCOc1cc(NC(=S)c2ccsc2C)ccc1Cl	15.6 µM (inactive)
Cc1ccc(S(=O)(=O)CN2C(=O)C(c3ccccc3)(c3ccccc3)C23OC(c2ccc(Cl)cc2)=CC3=O)cc1 (stereo unspecified)	> 10 µM (inactive)
CC1N=C(c2ccccc2)OC1=O (stereo unspecified)	> 100 µM (inactive)

Input: Using the record for "CCOC(=O)c1csc(NC(=O)CCN2CCN(C)CC2)n1" , state its measured GI50.
Output: > 100 µM (inactive)

====

system: K562; experiment: NCI tumour cell line growth inhibition, 48 h
Activity calls are given as the source filed them. No stated cut-off is given here; in the data, active = GI50 up to about 1.1 µM and inactive = higher.
Permitted responses: Y for active, N for inactive

Some solved entries appear below for comparison.
O=C1CC2(CCC(O)(c3ccc4ccccc4c3)C(C(=O)c3ccc4ccccc4c3)C2)C(=O)c2ccccc2N1 (centres undefined)	N
COC(=O)C1=C(C(=O)OC)C2(C)OC1C(=O)C21CC1 (centres undefined)	N
CC(C)(C)OC(=O)n1c2ccccc2c2c(=O)nc(N3CCCCC3)sc21	N
O=C(O)C1(c2ccccc2)CCCNCC1 (centres undefined)	N

Input: Given "Cc1nc2c(nc1Cl)nc(Oc1ccc(Cl)cc1)c1ccccc12" , state the outcome it received in this test.
Output: N

Input: // outcome(item) with item = "O=C(O)/C(=C/C=C/c1ccccc1)c1csc(-c2nc(/C(=C\C=C\c3ccccc3)C(=O)O)cs2)n1"
Output: N

Input: Dear all, I need the recorded test outcome for Cc1ccc(S(=O)(=O)N/N=C2\C3CC4CC(C3)C2C4)cc1 (centres undefined) , thank you.
Output: N

Input: I'd appreciate the recorded outcome for "COc1ccc2c(c1)-c1[nH]c3ccc(OC)cc3c1CC2" from this test.
Output: N

Input: // param item: COc1cc(C2SC(=N)Nc3c2c(C)nn3C(=O)Cc2ccccc2)cc(OC)c1OC (centres undefined) ; yields the recorded call
Output: N

Input: Dear colleague, could you share the recorded outcome for COC(=O)C1(Cc2ccccc2)Cc2ccccc2C1O (centres undefined) when you have a moment?
Output: N

Input: Hi, sorry to bother you, what did the test record for C=C1C2C[C@@H]3O[C@H]4C[C@H]5O[C@@]6(C[C@@H]7O[C@]8(C[C@H](C)[C@@H]9O[C@@H]%10CC(CO)O[C@@H]%10C[C@@H]9O8)C[C@H](C)[C@@H]7O6)C[C@H]5O[C@H]4[C@H](C)[C@H]3OC(=O)C[C@H]3CC[C@@H]4OC5[C@H]6O[C@]7(CC[C@H]8CC(=C)[C@H](CC[C@@H](C[C@H]1C)O2)O8)CC6O[C@@H]5[C@@H](O7)[C@H]4O3 (some centres undefined) ?
Output: Y

Input: Record request — test call for "C[N+](C)(C)/C=N\c1cccc2c1CCCC2"
Output: N

====

system: SNB-19; assay: NCI tumour cell line growth inhibition, 48 h
The source made the active and inactive calls. No stated cut-off is given here; in the data, active = GI50 up to about 1.1 µM and inactive = higher.
Here the recorded GI50 is given for each entry.

CCCc1c(O)nc2ccccc2c1O	> 100 µM (inactive)

Input: Supply measured GI50 of "Cn1c(=O)cc(N2CCCC2)[nH]c1=O" in your reply.
Output: > 100 µM (inactive)

Input: For the compound "COc1cc2c(cc1C)NC(=O)/C2=C\c1ccncc1" , report GI50.
Output: 5.2 µM (inactive)

Input: Tell me measured GI50 for CC(=O)OCC1OC(c2nnc(C)o2)=CC(OC(C)=O)C1OC(C)=O (stereo unspecified) please.
Output: > 100 µM (inactive)

Input: Quick one: give measured GI50 for "O=S(=O)(O)c1cc(O)c(/N=N\C2S(=O)(=O)OCCOS2(=O)=O)c2ccccc12"
Output: 56.5 µM (inactive)

====

system: MDA-MB-231; test: NCI tumour cell line growth inhibition, 48 h
Activity calls are given as the source filed them. Cut-off read from the data, not from the text of the source: active = GI50 up to about 1.1 µM and inactive = higher.
measurementName: GI50

CC[C@]12C=CCN3CCC4(c5cc(/N=N/c6ccccc6)c(OC)cc5N(C)[C@H]4[C@@](O)(C(=O)OC)[C@@H]1OC(C)=O)[C@@H]32 (some centres undefined)	16.2 µM (inactive)
CCC(C)[C@H](NC(=O)N[C@H](C)c1ccccc1)C(=O)OC (some centres undefined)	> 100 µM (inactive)
CN(C)CCCn1c(-c2ccc(Br)cc2)cs/c1=N\c1ccccc1	15.1 µM (inactive)
Cc1ccc(S(=O)(=O)N/N=C2\C3CC4CC(C3)C2C4)cc1 (centres undefined)	> 100 µM (inactive)
COc1cc2cc(C(=O)N3C[C@H](CCl)c4c3cc(N)c3ccccc43)[nH]c2c(OC)c1OC	3.36 µM (inactive)

Input: Please look at this compound and report its GI50: "CCOC(=O)c1ccc(-n2nnc(C(N)=O)c2O)cc1"
Output: > 100 µM (inactive)

Input: Fill in GI50 for record "O=C(NCCCCCCCN1CCCCCCC1)C(C1CCCCC1)C1CCCCC1"
Output: 8.51 µM (inactive)

Input: Report GI50 for "O=C1/C(=C/c2ccccc2S)N=C(c2ccccc2)N1c1ccc2c(c1)Sc1cc(N3C(=O)/C(=C/c4ccccc4S)N=C3c3ccccc3)ccc1N2"
Output: 28.4 µM (inactive)

Input: Report GI50 for COC(=O)N[C@H](C(=O)O)C(C)O[Si](C)(C)C(C)(C)C (some centres undefined)
Output: > 100 µM (inactive)

Input: Report GI50, nothing else, for this compound: CN(C)c1cccc2c1C(=O)C=CC21CCc2ccc(N(C)C)c3c(N(C)C)ccc1c23 (centres undefined)
Output: 13.6 µM (inactive)

Input: Write down GI50 measured for item O=C(O)C1C2CCC(O2)C1C(=O)Nc1cccc2cccnc12 (centres undefined)
Output: > 100 µM (inactive)

Input: Tell me GI50 reported for "O=c1ccc(=O)c2c1c1[nH]c3ccccc3c1c1c(=O)c3ccccc3c(=O)c21"
Output: 5.36 µM (inactive)

Input: Output measured GI50 for this item: "CCCc1c(O)nc2ccccc2c1O"
Output: > 100 µM (inactive)

Input: Specify measured GI50 for O=C(O)CCC1C(=O)C2CCN1CC2 (centres undefined) .
Output: > 100 µM (inactive)

Input: Complete the entry with GI50 for "COc1cc(/C=C/c2cc(/C=C/c3ccc(O)c(OC)c3)oc(=O)c2)ccc1O"
Output: 13.9 µM (inactive)

Input: Please list GI50 recorded for the compound "CC(=O)OCc1cn(S(=O)(=O)c2ccc(C)cc2)cn1"
Output: > 100 µM (inactive)

Input: Supply recorded GI50 for "CCc1nn(CN2CCOCC2)c(=S)n1/N=C/c1ccc(-c2ccc(Cl)cc2)o1" here.
Output: > 100 µM (inactive)

Input: Identify GI50 associated with the compound CC1=NN(c2cccc(Cl)c2)C2(SCC(=O)N2c2nc3ccccc3s2)/C1=C\c1ccc(N(C)C)cc1 (centres undefined)
Output: 40.7 µM (inactive)

Input: Fill in GI50 for record O=C1O[C@H]2[C@H](O)[C@@H](OC(=O)c3cc(O)c(O)c4c3[C@@H]3C1=CC(=O)C(O)(O)C3(O)O4)[C@H](OC(=O)c1cc(O)c(O)c(O)c1)O[C@@H]2CO (some centres undefined)
Output: > 100 µM (inactive)
